Target: calf intestinal ADA (Type III, Sigma Chemical Company) (Bos taurus, UniProt P56658)
Construct: purchased Sigma Chemical Company Type III; host or cells: calf intestine
Sequence (P56658 1-363): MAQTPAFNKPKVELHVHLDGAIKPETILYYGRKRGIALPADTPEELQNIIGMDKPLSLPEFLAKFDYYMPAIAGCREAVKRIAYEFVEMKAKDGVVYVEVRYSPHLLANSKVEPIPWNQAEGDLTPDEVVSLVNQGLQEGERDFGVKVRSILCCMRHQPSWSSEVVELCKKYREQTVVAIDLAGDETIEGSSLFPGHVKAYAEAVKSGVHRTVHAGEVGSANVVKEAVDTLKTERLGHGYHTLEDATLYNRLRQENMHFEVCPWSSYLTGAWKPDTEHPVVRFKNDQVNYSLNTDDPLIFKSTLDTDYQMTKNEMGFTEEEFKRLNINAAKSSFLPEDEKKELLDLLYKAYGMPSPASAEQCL
Test: Testing for ADA inhibition, direct spectrophotometric assay at 265 nm
Assay type: biochemical
Conditions: calf intestinal ADA, 30° C.; read-out: Ki values (ADA inhibition)
pKi: −log10 of the molar value.
TEST_READOUT: pKi

Use the examples below as a reference point.
C[C@H](O)[C@@H](CCCCCCO)n1cnc2c(N)ncnc21
8.47
COC(=O)CCCCC[C@H]([C@H](C)O)n1cnc2c(N)ncnc21
8.30

(1) C[C@H](O)[C@@H](CCCCCCCl)n1cnc2c(N)ncnc21
(2) C[C@H](O)[C@@H](CCCCC(O)CO)n1cnc2c(N)ncnc21 (single isomer, unassigned)
(3) CC(O)CCCC[C@H]([C@H](C)O)n1cnc2c(N)ncnc21 (single isomer, unassigned)
**Query** Sort (3 molecules) by pKi: min first. // ordering of labels required in reply
**Result** 3, 2, 1
